Where a name gives a salt, the structure may show the parent alone.
value kind: pIC50
Notebook: values listed as pIC50 are -log10 of the concentration (mol/L).

pIC50 on UniProt:P22607 for COCCN(Cc1cn2ncnc(N)c2c1-c1cc2cc(C)cc(OC)c2s1)C(C)C is 7.85

pIC50 on UniProt:P22607 for COc1cc(C)cc2cc(-c3c(CN4CCN(C(C)=O)CC4)cn4ncnc(N)c34)sc12 is 7.55

pIC50 on UniProt:P22607 for COc1cc(C)cc2cc(-c3c(CNCCO)cn4ncnc(N)c34)sc12 [Example 10, dihydrochloride] is 8.85

pIC50 on UniProt:P22607 for COc1cc(C)cc2cc(-c3c(COCCCN(C)C)cn4ncnc(N)c34)sc12 is 7.61
